Where do the numbers come from? From PubChem BioAssay (NCI).

system: NCI-H460 lung; experiment: NCI tumour cell line growth inhibition, 48 h
reported.metric: TGI (µM)
Give the value, in units of µM, as a plain number.

Look over these answered cases.
compound: COc1ccc2c3c1OC1C(F)C=CC4(O)C(C2)NCCC314 (centres undefined)
reported.metric: TGI
test.value: 21.4

compound: O=C1NC2c3c(I)sc(I)c3C(=O)C2O1 (centres undefined)
reported.metric: TGI
test.value: 32.9

compound: CN[C@H]1CN(c2ccc3c(=O)c(C(=O)O)cn(-c4nccs4)c3n2)C[C@@H]1OC
reported.metric: TGI
test.value: 1.53

Now for a further compound.
Problem: Output measured TGI for this item: COc1ccc(C(=O)C(CN(C)C)CN(C)C)cc1
Solution: 40.1

* * *

system: T-47D breast; experiment: NCI tumour cell line growth inhibition, 48 h; in the data active = GI50 below about 0.43 µM; inactive = the rest
Please reply with one of these outcomes: active, inactive

Some entries whose results are on file:
smiles.record: O=C(CSc1nc2c(n1Nc1ccccc1)-c1ccccc1SC2)Nc1nc(-c2ccc(Cl)cc2)cs1
label.class: inactive
--
smiles.record: COc1ccc(C2(Cl)c3ccccc3N(c3ccccc3)c3ccccc32)cc1
label.class: active
--
smiles.record: O=C(CN(/C=C/C(=O)C(F)(F)F)c1ccc(Cl)cc1)c1ccc(Cl)cc1
label.class: inactive
--
smiles.record: Cc1nn(CNc2ccccc2C(F)(F)F)c(=S)n1/N=C/c1cccc2cccnc12
label.class: inactive
--
smiles.record: Cc1cc2c(C(=O)NC[C@H](C)c3ccccc3)c(O)c(O)cc2c(O)c1-c1c(C)cc2c(C(=O)NC[C@H](C)c3ccccc3)c(O)c(O)cc2c1O
label.class: active

Problem: Please let me know the test result on file for C[C@@H](Oc1cc(-n2cnc3ccc(OC4CCN(C)CC4)cc32)sc1C(N)=O)c1ccccc1Cl .
Solution: inactive

Problem: Query: recorded result category for CNC(=O)c1c(C)oc2cc(Oc3ncnc4cc(OC)c(OC)cc34)ccc12 in this test
Solution: inactive

Problem: Given Clc1c(Cl)[n+](Cc2ccc3ccccc3c2)cn1Cc1ccc2ccccc2c1 , state the outcome it received in this test.
Solution: inactive

Problem: What outcome does the record of this test show for C=C(c1ccc(OC)c(/C=C/C(=O)c2ccc3c(c2)OCO3)c1)c1cc(OC)c(OC)c(OC)c1 ?
Solution: inactive

Problem: Hi, do you know how Cc1cc2nc(NCCN)n(Cc3ccc(F)c(Cl)c3)c2cc1C came out in this test?
Solution: inactive

* * *

test system: UACC-257 melanoma; test: NCI tumour cell line growth inhibition, 48 h
# key: entry, value: GI50

compound: CC1Cc2c(Cl)ncnc2N(C)c2ccc(Cl)cc21 (stereo not drawn)
test.system: UACC-257 melanoma
GI50: 429 nM
--
compound: Clc1c(Cl)[n+](Cc2ccc3ccccc3c2)cn1Cc1ccc2ccccc2c1
test.system: UACC-257 melanoma
GI50: 1740 nM
--
compound: COC(=O)[C@@H]1c2cc3c(c(O)c2[C@@H](OC2OC(C)C(OC)C(C)(OC)C2OC)C[C@]1(C)O)C(=O)c1c(O)cc2c(c1C3=O)O[C@H]1O[C@]2(C)[C@H](O)[C@@H](N(C)C)[C@@H]1O (stereo partly drawn)
test.system: UACC-257 melanoma
GI50: 12.3 nM
--
compound: Cc1cc2c(C(=O)NC[C@H](C)c3ccccc3)c(O)c(O)cc2c(O)c1-c1c(C)cc2c(C(=O)NC[C@H](C)c3ccccc3)c(O)c(O)cc2c1O
test.system: UACC-257 melanoma
GI50: 1370 nM
--
compound: Cc1onc(-c2ccccc2)c1C(=O)N/N=C/c1cc(Cl)cc(Cl)c1O
test.system: UACC-257 melanoma
GI50: 3470 nM

Problem: Report GI50 for COc1cc(/C=C2\CC3C4CC=C5C[C@@H](OC(C)=O)CC[C@]5(C)C4CC[C@]3(C)C2=O)ccc1OCCN1CCCCC1 (stereo partly drawn)
Solution: 3850 nM

Problem: Indicate its recorded GI50; the compound in question is O=C1NC(=C(Cl)Cl)/C(=N/S(=O)(=O)N2CCCCC2)N1
Solution: 2430 nM

Problem: Supply GI50 value. Item: O=C1N[C@@H]2[C@@H](O)[C@@H](O)[C@H](O)C[C@H]2c2cc3c(c(O)c21)OCCO3
Solution: 340 nM

* * *

test system: M14 melanoma; assay: NCI tumour cell line growth inhibition, 48 h
TGI overview

Example results:
compound: O=C1C2C(C(=O)N1c1ccccc1)C1(c3ccccc3)CCC2(C(=O)c2ccccc2)O1 (stereo not given)
TGI: > 10 µM
//
compound: FC1(F)[Se]C2C3CCC(C3)C2C1(F)F (stereo not given)
TGI: > 100 µM
//
compound: CC1(C)OC2C(COC(c3ccccc3)(c3ccccc3)c3ccccc3)OC(c3c[nH]c4c(N)ncnc34)C2O1 (stereo not given)
TGI: 9.44 µM

Problem: Please give the documented TGI of CSC1=N/C(=C\c2ccc(Cl)cc2)C(=O)N1CN1CCCCC1
Solution: > 100 µM

Problem: Hello, please tell me recorded TGI for this one: C=CC(=O)Nc1ccc(NC(=O)C=C)c2c1C(=O)c1ccccc1C2=O
Solution: > 100 µM

* * *

system: UO-31 renal; assay: NCI tumour cell line growth inhibition, 48 h; in the data active = GI50 below about 0.43 µM; inactive = the rest
Your reply should match one of these outcome classes. t for active, f for inactive

Please review the entries below; each comes with its answer.
molecule: Cc1ccc(O)c(NC(=O)c2cccc(Nc3ccnc(C(F)(F)F)c3)c2)c1
label.class: f
//
molecule: C[C@@H](Oc1cc(-n2cnc3ccc(OC4CCN(C)CC4)cc32)sc1C(N)=O)c1ccccc1Cl
label.class: f
//
molecule: CC1Cc2c(Cl)ncnc2N(C)c2ccc(Cl)cc21 (stereo not drawn)
label.class: t

Problem: # outcome recorded in this test, key = Fc1ccc(-c2c(-c3ccncc3)nc3n2CCS3)cc1
Solution: f

Problem: For O=c1c2c(nc3n1CCS3)[nH]c1cc([N+](=O)[O-])ccc12 , what call appears in the results of this test?
Solution: f

Problem: Assay outcome for COC(=O)[C@@H]1c2cc3c(c(O)c2[C@@H](OC2OC(C)C(OC)C(C)(OC)C2OC)C[C@]1(C)O)C(=O)c1c(O)cc2c(c1C3=O)O[C@H]1O[C@]2(C)[C@H](O)[C@@H](N(C)C)[C@@H]1O (stereo partly drawn) : what was it?
Solution: t

Problem: Recorded call for COc1ccc(C2(Cl)c3ccccc3N(c3ccccc3)c3ccccc32)cc1 ?
Solution: f

Problem: # fetch the recorded call for Cc1onc(-c2ccccc2)c1C(=O)N/N=C/c1cc(Cl)cc(Cl)c1O here
Solution: f

Problem: For NS(=O)(=O)OC[C@H]1C[C@@H](Nc2ccnc3cc(-c4cccc(SC(F)(F)F)c4)nn23)[C@H](O)[C@@H]1O , what call appears in the results of this test?
Solution: t

* * *

The entries below are paired with their reported TGI.
system: SK-MEL-5 melanoma; test: NCI tumour cell line growth inhibition, 48 h
Where a SMILES comes first, the peptide text is derived from it. Bridges are numbered along the chain shown (N, C = ends). [ ]: non-standard residue; d: D form. Aib = CC(C)(N)C(=O)O; βAla = NCCC(=O)O

Recorded results for 6 compounds are shown here.
compound: c1ccc2c(CSCc3cccc4ccccc34)cccc2c1
TGI: > 100 µM

compound: C=CSCCC(N)C(=O)O (centres undefined)
TGI: > 100 µM

compound: CC1(C)NC(=O)C(NC(=O)C(N)CC(=O)O)CCCCNC(=O)CCNC1=O (centres undefined) (H-DK[Aib][βAla]; lactam 2-C; configuration not given here)
TGI: > 100 µM

compound: Cc1ccc(CC2(C(=O)O)Cc3ccc(C)cc3C2)cc1 (centres undefined)
TGI: > 100 µM

compound: COc1c/c(=C2\C=c3ccccc3=N2)[nH]/c1=C\c1[nH]c(C)cc1C
TGI: 0.0352 µM

compound: Cc1[nH]c(=O)nc2nc3cc(Cl)cc(Cl)c3c(NC(C)(CO)CO)c12
TGI: > 100 µM

Problem: Look up and state reported TGI for CC(=O)NC1C(OC(C)C(=O)NC(C)C(=O)NC(CCC(=O)NCCCCCNc2ccc([N+](=O)[O-])c3[nH]c4ccccc4c(=O)c23)C(N)=O)C(O)C(CO)OC1(C)OCc1ccccc1 (centres undefined)
Solution: > 100 µM

Problem: Check the records and state TGI for CNC(=O)c1ccc(N2C(=S)N(c3cnc(C#N)c(C(F)(F)F)c3)C(=O)C23CCC3)cc1F
Solution: > 100 µM

Problem: State, in one line, measured TGI of CC1Cc2c(Cl)ncnc2N(C)c2ccc(Cl)cc21 (centres undefined)
Solution: 0.338 µM

Problem: Given C=C(C)C12CC3CC(/C(=N/O)C(C1)/C3=N\O)[C@@]2(C)O (some centres undefined) , respond with its TGI.
Solution: > 100 µM

* * *

system: NCI-H522 lung; test: NCI tumour cell line growth inhibition, 48 h
reported.metric: TGI

Please review the following examples before continuing.
compound: Cc1ccc2c(c1)SC1=Nc3sc4cc(C)ccc4[n+]3CN12
test.system: NCI-H522 lung
TGI: 11.2 µM
--
compound: CN(CCS(=O)(=O)N1C(=O)C2CCCN2C(=O)[C@@H]1Cc1ccccc1)C(=O)OCc1ccccc1 (stereo partly specified)
test.system: NCI-H522 lung
TGI: > 100 µM
--
compound: NC(=O)C1CCCN1C(=O)C(Cc1cnc[nH]1)NC(=O)C1CCCC1 (stereo unspecified)
test.system: NCI-H522 lung
TGI: > 100 µM
--
compound: c1csc(-c2nn3c(C45CC6CC(CC(C6)C4)C5)nnc3s2)c1
test.system: NCI-H522 lung
TGI: > 100 µM
--
compound: O=C(O)CSc1n[nH]c(=O)[nH]c1=O
test.system: NCI-H522 lung
TGI: > 100 µM

Problem: Tell me its TGI given C=CN(C(=O)N1CCN(c2cc3c(cc2F)c(=O)c(C(=O)O)cn3C2CC2)CC1)c1nc(-c2ccc(OC)cc2)cs1 as the entry.
Solution: 6.95 µM

Problem: Indicate the recorded TGI value for this compound: COC(=O)c1cc2c(=O)n(C)c3ccccc3n2c1C(=O)OC
Solution: 73.7 µM

Problem: Read the entry CCOC(=O)C1=CCCC[C@H]1S(=O)(=O)Nc1ccc(F)cc1Cl and write its reported TGI.
Solution: 90.1 µM

Problem: Give TGI for O=C1[C@H]2ON(c3ccccc3)C(c3ccc([N+](=O)[O-])cc3)[C@H]2C(=O)N1c1ccc(Cc2ccc(N3C(=O)[C@@H]4ON(c5ccccc5)C(c5ccc([N+](=O)[O-])cc5)[C@@H]4C3=O)cc2)cc1 (stereo partly specified)
Solution: > 100 µM

Problem: Please indicate TGI recorded for Cc1nc([N+](=O)[O-])cn1-c1nc2ccccn2c1[N+](=O)[O-]
Solution: > 100 µM

Problem: Provide one value: measured TGI of CNC(=O)C(C)NC(=O)C(Cc1ccccc1)NC(=O)c1ccccc1 (stereo unspecified)
Solution: > 100 µM

Problem: Give the value of TGI reported for the following: COc1ccc(Cc2c3cc(O)c(=O)cc-3ccn2C)cc1
Solution: > 100 µM

Problem: Kindly indicate its recorded TGI. Item: O=C1C=C(Nc2ccc(Cl)cc2Cl)c2ccccc2C1=O
Solution: > 100 µM

Problem: Entry COC1/C=C(C)/C=C/C(C)/C=C/C(=O)OC(/C(C)=C/C=C(\C)CNC(=O)[C@H](CO)NC=O)C(C)/C=C/C=C/C(OC)CC/C=C(C)/C=C/C1 (stereo partly specified) needs its TGI filled in; supply it.
Solution: > 1 µM

Problem: Supply reported TGI belonging to this compound: COC(=O)CCC(=O)c1ccc2c(c1)CCC2
Solution: > 100 µM

Problem: State its TGI for this compound: CCC[C@H]1O[C@@H]2CC(=O)O[C@@H]2C2=C1C(=O)C=CC2=O
Solution: 4.68 µM

Problem: Note down TGI recorded for CCOC(=O)Cc1c(C)c2cc(C(=O)c3ccccc3)c(O)cc2oc1=O
Solution: 68.7 µM

Problem: // Input: C=CSCCC(N)C(=O)O (stereo unspecified) . Output its TGI only.
Solution: > 100 µM

Problem: For the compound O=C(CSCC(=O)N/N=C/c1ccc2c(c1)OCO2)N/N=C/c1ccc2c(c1)OCO2 , give its reported TGI.
Solution: > 100 µM

Problem: Return reported TGI. Input compound: NC1N=C(c2ccc(Cl)cc2)C2=C(N1)c1ccccc1CC2 (stereo unspecified)
Solution: 36.2 µM

Problem: Please list TGI recorded for the compound OCC1C(OCc2ccccc2)C(OCc2ccccc2)C(OCc2ccccc2)CN1Cc1ccccc1 (stereo unspecified)
Solution: > 100 µM
